# reported viability, T/C; entries follow
- Test system: LG0567-F671-PDC multi-cell spheroid viability
- test: Anticancer human tumor LG0567-F671-PDC patient-derived lung adenocarcinoma cell line growth inhibition [IpAb]
- particulars: second compound 1 µM; first compound 0.00316 µM; stronger effect = lower value
The response must be a number in % with no trailing unit.

Before answering, review these 2 worked examples.
COc1c(OCCCN2CCOCC2)ccc2c3n(c(=NC(=O)c4cnc(N)nc4)nc12)CCN3 + CCN1CCN(Cc2ccc(Nc3ncc(F)c(-c4cc(F)c5nc(C)n(C(C)C)c5c4)n3)nc2)CC1
69.7
CC(C)n1nc(-c2ccc3oc(N)nc3c2)c2c(N)ncnc21 + CCN1CCN(Cc2ccc(Nc3ncc(F)c(-c4cc(F)c5nc(C)n(C(C)C)c5c4)n3)nc2)CC1
56.3

Looking up Cn1ncnc1[C@H]1c2n[nH]c(=O)c3cc(F)cc(c23)N[C@@H]1c1ccc(F)cc1 + CC(C)NCC(C(=O)N1CCN(c2ncnc3c2C(C)CC3O)CC1)c1ccc(Cl)cc1 , I found its viability, T/C recorded as 75

For reference, reported viability, T/C for COc1c(OCCCN2CCOCC2)ccc2c3n(c(=NC(=O)c4cnc(N)nc4)nc12)CCN3 + CC(C)NCC(C(=O)N1CCN(c2ncnc3c2C(C)CC3O)CC1)c1ccc(Cl)cc1 stands at 72.7

In plain terms, CC(C)n1nc(-c2ccc3oc(N)nc3c2)c2c(N)ncnc21 + CC(C)NCC(C(=O)N1CCN(c2ncnc3c2C(C)CC3O)CC1)c1ccc(Cl)cc1 has a documented viability, T/C of 76.6

// field: viability, T/C; key: Cn1ncnc1[C@H]1c2n[nH]c(=O)c3cc(F)cc(c23)N[C@@H]1c1ccc(F)cc1 + CCN1CCN(Cc2ccc(Nc3ncc(F)c(-c4cc(F)c5nc(C)n(C(C)C)c5c4)n3)nc2)CC1 ; value = 56.1

====

- Tested on: LG0567-F671-PDC multi-cell spheroid viability
- test: Anticancer human tumor LG0567-F671-PDC cell line growth inhibition [IpAb];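 note: viability read after 7 days of drug exposure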;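 for viability, T/C: 100% = DMSO vehicle control luminescence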
- particulars: second compound 0.316 µM; first compound 0.01 µM; stronger effect = lower value
- Experimental: Combinatorial screen of targeted agents with ipatasertib and abemaciclib in multi-cell type tumor spheroids […] Compounds. […] If the clinical Cmax for an agent had not been determined, the highest concentration tested was 10 microM. NCI60 Cell Culture. […] The optimal seeding densities for each of the cell lines at each time point assessed were determined prior to performing the concentration response studies. […]
As shown below, each of these compounds has a reported viability, T/C value.

CC(C)n1nc(-c2ccc3oc(N)nc3c2)c2c(N)ncnc21 + CCN1CCN(Cc2ccc(Nc3ncc(F)c(-c4cc(F)c5nc(C)n(C(C)C)c5c4)n3)nc2)CC1
38.5%
Cn1ncnc1[C@H]1c2n[nH]c(=O)c3cc(F)cc(c23)N[C@@H]1c1ccc(F)cc1 + CCN1CCN(Cc2ccc(Nc3ncc(F)c(-c4cc(F)c5nc(C)n(C(C)C)c5c4)n3)nc2)CC1
52.1%

Record CC(C)n1nc(-c2ccc3oc(N)nc3c2)c2c(N)ncnc21 + CC(C)NCC(C(=O)N1CCN(c2ncnc3c2C(C)CC3O)CC1)c1ccc(Cl)cc1 has LG0567-F671-PDC multi-cell spheroid viability viability, T/C equal to 66.5%

====

- Tested on: LG0567-F671-PDC multi-cell spheroid viability
- test: Anticancer human tumor LG0567-F671-PDC cell line growth inhibition [IpAb];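 note: viability read after 7 days of drug exposure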;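 for viability, T/C: 100% = DMSO vehicle control luminescence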
- particulars: second compound 0.0316 µM; first compound 0.316 µM; stronger effect = lower value
assay_metric: viability, T/C (%)
The reply should be a number in %, with the unit left off.

C=CCn1c(=O)c2cnc(Nc3ccc(N4CCN(C)CC4)cc3)nc2n1-c1cccc(C(C)(C)O)n1 + CCN1CCN(Cc2ccc(Nc3ncc(F)c(-c4cc(F)c5nc(C)n(C(C)C)c5c4)n3)nc2)CC1
54.9
CCCS(=O)(=O)Nc1ccc(F)c(C(=O)c2c[nH]c3ncc(-c4ccc(Cl)cc4)cc23)c1F + CCN1CCN(Cc2ccc(Nc3ncc(F)c(-c4cc(F)c5nc(C)n(C(C)C)c5c4)n3)nc2)CC1
140
Cc1nc(NC(=O)N2CCCC2C(N)=O)sc1-c1ccnc(C(C)(C)C(F)(F)F)c1 (stereo not given) + CCN1CCN(Cc2ccc(Nc3ncc(F)c(-c4cc(F)c5nc(C)n(C(C)C)c5c4)n3)nc2)CC1
57.4
Cn1ncc(Cl)c1-c1cc(C(=O)NC(CN)Cc2cccc(F)c2)sc1Cl (stereo not given) + CCN1CCN(Cc2ccc(Nc3ncc(F)c(-c4cc(F)c5nc(C)n(C(C)C)c5c4)n3)nc2)CC1
49.9

Tested on LG0567-F671-PDC multi-cell spheroid viability, the item CC1(C)CCC(CN2CCN(c3ccc(C(=O)NS(=O)(=O)c4ccc(NCC5CCOCC5)c([N+](=O)[O-])c4)c(Oc4cnc5[nH]ccc5c4)c3)CC2)=C(c2ccc(Cl)cc2)C1 + CCN1CCN(Cc2ccc(Nc3ncc(F)c(-c4cc(F)c5nc(C)n(C(C)C)c5c4)n3)nc2)CC1 showed viability, T/C equal to 87.1

====

- System: LG0567-F671-PDC multi-cell spheroid viability
- test: Anticancer human tumor LG0567-F671-PDC cell line growth inhibition [IpAb];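 note: viability read after 7 days of drug exposure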;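 for viability, T/C: 100% = DMSO vehicle control luminescence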
- particulars: second compound 10 µM; first compound 3.16 µM; stronger effect = lower value
With a cut-off of 50%, any viability, T/C strictly below it is called rule met; any viability, T/C meeting it or above is called rule not met.

C=CCn1c(=O)c2cnc(Nc3ccc(N4CCN(C)CC4)cc3)nc2n1-c1cccc(C(C)(C)O)n1 + CC(C)NCC(C(=O)N1CCN(c2ncnc3c2C(C)CC3O)CC1)c1ccc(Cl)cc1
rule met
CCCS(=O)(=O)Nc1ccc(F)c(C(=O)c2c[nH]c3ncc(-c4ccc(Cl)cc4)cc23)c1F + CC(C)NCC(C(=O)N1CCN(c2ncnc3c2C(C)CC3O)CC1)c1ccc(Cl)cc1
rule not met
Cc1nc(NC(=O)N2CCCC2C(N)=O)sc1-c1ccnc(C(C)(C)C(F)(F)F)c1 (stereo not given) + CC(C)NCC(C(=O)N1CCN(c2ncnc3c2C(C)CC3O)CC1)c1ccc(Cl)cc1
rule met

query: For this molecule, is viability, T/C lower than 50%? Cn1ncc(Cl)c1-c1cc(C(=O)NC(CN)Cc2cccc(F)c2)sc1Cl (stereo not given) + CC(C)NCC(C(=O)N1CCN(c2ncnc3c2C(C)CC3O)CC1)c1ccc(Cl)cc1
result: rule met

query: Quick check: does Cn1nccc1Nc1nccc(-c2ccn(C(CO)c3ccc(Cl)c(F)c3)c(=O)c2)n1 (stereo not given) + CC(C)NCC(C(=O)N1CCN(c2ncnc3c2C(C)CC3O)CC1)c1ccc(Cl)cc1 have viability, T/C under 50%?
result: rule met

====

- System: LG0567-F671-PDC multi-cell spheroid viability
- test: Anticancer human tumor LG0567-F671-PDC cell line growth inhibition [IpAb];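 note: viability read after 7 days of drug exposure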
- particulars: curve of first compound; second compound 3.16 µM
In this section we review reported pIC50 values for a set of compounds.
When answering, recall that pIC50 equals minus log10 of the concentration in mol/L, and write that number alone.

Answered cases to consult:
CC(C)(C)c1cnc(CSc2cnc(NC(=O)C3CCNCC3)s2)o1 + CC(C)NCC(C(=O)N1CCN(c2ncnc3c2C(C)CC3O)CC1)c1ccc(Cl)cc1
6.82
C=CCn1c(=O)c2cnc(Nc3ccc(N4CCN(C)CC4)cc3)nc2n1-c1cccc(C(C)(C)O)n1 + CC(C)NCC(C(=O)N1CCN(c2ncnc3c2C(C)CC3O)CC1)c1ccc(Cl)cc1
5.98
Cn1ncnc1[C@H]1c2n[nH]c(=O)c3cc(F)cc(c23)N[C@@H]1c1ccc(F)cc1 + CC(C)NCC(C(=O)N1CCN(c2ncnc3c2C(C)CC3O)CC1)c1ccc(Cl)cc1
7.42

Attention now turns to another entry.
For CC1(C)CCC(CN2CCN(c3ccc(C(=O)NS(=O)(=O)c4ccc(NCC5CCOCC5)c([N+](=O)[O-])c4)c(Oc4cnc5[nH]ccc5c4)c3)CC2)=C(c2ccc(Cl)cc2)C1 + CC(C)NCC(C(=O)N1CCN(c2ncnc3c2C(C)CC3O)CC1)c1ccc(Cl)cc1 the compound record lists pIC50 as 5.27

====

- Test system: LG0567-F671-PDC multi-cell spheroid viability
- test: Anticancer human tumor LG0567-F671-PDC cell line growth inhibition [IpAb];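 note: viability read after 7 days of drug exposure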;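 for viability, T/C: 100% = DMSO vehicle control luminescence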
- particulars: second compound 0.1 µM; first compound 0.0316 µM; stronger effect = lower value
Documented viability, T/C across a set of compounds

GET /values?item= C=CCn1c(=O)c2cnc(Nc3ccc(N4CCN(C)CC4)cc3)nc2n1-c1cccc(C(C)(C)O)n1 + CC(C)NCC(C(=O)N1CCN(c2ncnc3c2C(C)CC3O)CC1)c1ccc(Cl)cc1 &system= LG0567-F671-PDC multi-cell spheroid viability returns viability, T/C: 80.7%

Readout viability, T/C for CCCS(=O)(=O)Nc1ccc(F)c(C(=O)c2c[nH]c3ncc(-c4ccc(Cl)cc4)cc23)c1F + CC(C)NCC(C(=O)N1CCN(c2ncnc3c2C(C)CC3O)CC1)c1ccc(Cl)cc1 , test system LG0567-F671-PDC multi-cell spheroid viability, was 100%

Recorded viability, T/C for C=CC(=O)N1CCN(c2nc(=O)n(-c3c(C)ccnc3C(C)C)c3nc(-c4c(O)cccc4F)c(F)cc23)C(C)C1 (stereo not drawn) + CCN1CCN(Cc2ccc(Nc3ncc(F)c(-c4cc(F)c5nc(C)n(C(C)C)c5c4)n3)nc2)CC1 on LG0567-F671-PDC multi-cell spheroid viability was 15.5%
